# Tested on: adherent cells or suspension cells
# METHOD DESCRIPTION: Hoechst 33342 nuclear staining (fraction of apoptotic nuclei)
# Format: cell-based
# Design: key: 0 relating to no activity; 1 relating to weak activity comprising less than 70% of the cells; score 2 relating to strong activity comprising more than 70% of the cells
# STUDY CONDITIONS: HeLa, conc 1 μm
We begin with a simple list: items and their reported Hoechst 33342 nuclear staining score.
QUANTITY MEASURED: Hoechst 33342 nuclear staining score

COc1cc2nc(-c3nonc3N)n(CC(=O)c3ccc(-c4ccccc4)cc3)c2cc1OC [Example 117]
0
COc1ccc(C(Cn2c(-c3nonc3N)nc3ccccc32)=NO)cc1 (mixture of isomers) [Example 20]
0
